B1: TPR t1 (parent)
chain: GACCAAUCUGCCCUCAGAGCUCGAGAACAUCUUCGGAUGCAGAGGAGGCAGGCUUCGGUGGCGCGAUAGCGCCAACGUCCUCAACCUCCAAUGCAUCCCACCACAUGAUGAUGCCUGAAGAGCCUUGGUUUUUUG

variants of: B1; test: polymerase ribozyme fitness, log enrichment relative to wild type (log ratio); higher = more active; in vitro selection for triplet polymerase activity
Tick criterion met if polymerase ribozyme fitness (log ratio) is -1 or greater. Tick criterion not met if polymerase ribozyme fitness (log ratio) is less than -1.

Q: Check if polymerase ribozyme fitness (log ratio) >= -1 (inclusive). Item: C3U A41C C70G U112C C124U
A: criterion not met

Q: Check if polymerase ribozyme fitness (log ratio) >= -1 (inclusive). Item: G63C G77C U129C
A: criterion not met

Q: Check if polymerase ribozyme fitness (log ratio) >= -1 (inclusive). Item: C4A U7A G110U
A: criterion not met

Q: Check if polymerase ribozyme fitness (log ratio) >= -1 (inclusive). Item: C102G U112A C123U G127A
A: criterion not met

Q: Check if polymerase ribozyme fitness (log ratio) >= -1 (inclusive). Item: C49A U92G G117U C123U
A: criterion not met

Q: Check if polymerase ribozyme fitness (log ratio) >= -1 (inclusive). Item: C70U A111G
A: criterion met

Q: Check if polymerase ribozyme fitness (log ratio) >= -1 (inclusive). Item: G44U C89G
A: criterion met

Q: Check if polymerase ribozyme fitness (log ratio) >= -1 (inclusive). Item: C12A C13A U59G G127A
A: criterion not met

Q: Check if polymerase ribozyme fitness (log ratio) >= -1 (inclusive). Item: C34U A95C
A: criterion not met

Q: Check if polymerase ribozyme fitness (log ratio) >= -1 (inclusive). Item: U54C C94A G113U
A: criterion not met

Q: Check if polymerase ribozyme fitness (log ratio) >= -1 (inclusive). Item: A16G G48A G110A
A: criterion not met

Q: Check if polymerase ribozyme fitness (log ratio) >= -1 (inclusive). Item: G48A C56U C70A
A: criterion not met

Q: Check if polymerase ribozyme fitness (log ratio) >= -1 (inclusive). Item: C11A G52A G110U G135U
A: criterion not met

Q: Check if polymerase ribozyme fitness (log ratio) >= -1 (inclusive). Item: G42U C101U
A: criterion not met

Q: Check if polymerase ribozyme fitness (log ratio) >= -1 (inclusive). Item: G51A U112G
A: criterion not met

Q: Check if polymerase ribozyme fitness (log ratio) >= -1 (inclusive). Item: U106C G117C
A: criterion not met

Q: Check if polymerase ribozyme fitness (log ratio) >= -1 (inclusive). Item: A5C G52A
A: criterion met

Q: Check if polymerase ribozyme fitness (log ratio) >= -1 (inclusive). Item: U7C C13A C53U
A: criterion met

Q: Check if polymerase ribozyme fitness (log ratio) >= -1 (inclusive). Item: A41U C115U G127A
A: criterion not met

Q: Check if polymerase ribozyme fitness (log ratio) >= -1 (inclusive). Item: G93U U96G C124A
A: criterion met

Q: Check if polymerase ribozyme fitness (log ratio) >= -1 (inclusive). Item: C11G C31A
A: criterion not met

Q: Check if polymerase ribozyme fitness (log ratio) >= -1 (inclusive). Item: G45U G48A G69U
A: criterion met
